Protocol description: Solubility
Format: physicochemical
Protocol conditions: water
Attribute measured: Solubility in water

[
  {
    "Compound structure": "COc1ccc2nc(N3C(=O)[C@@]4(C)[C@@H]5CC[C@@H](O5)[C@@]4(C)C3=O)sc2c1",
    "Attribute measured": "Solubility in water",
    "Experimental value": "Poor"
  },
  {
    "Compound structure": "C[C@@]12C(=O)N(c3nc4ccccc4s3)C(=O)[C@]1(C)[C@H]1CC[C@@H]2O1",
    "Attribute measured": "Solubility in water",
    "Experimental value": "Poor"
  },
  {
    "Compound structure": "C[C@@]12C(=O)N(c3nc4ccc(C(=O)O)cc4s3)C(=O)[C@]1(C)[C@H]1CC[C@@H]2O1",
    "Attribute measured": "Solubility in water",
    "Experimental value": "Good"
  },
  {
    "Compound structure": "COC(=O)c1ccc2nc(N3C(=O)[C@@]4(C)[C@@H]5CC[C@@H](O5)[C@@]4(C)C3=O)sc2c1",
    "Attribute measured": "Solubility in water",
    "Experimental value": "Good"
  },
  {
    "Compound structure": "Cc1ccc2nc(N3C(=O)[C@@]4(C)[C@@H]5CC[C@@H](O5)[C@@]4(C)C3=O)sc2c1",
    "Attribute measured": "Solubility in water",
    "Experimental value": "Poor"
  }
]

Give the measured Solubility in water of `C[C@@]12C(=O)N(c3nc4ccc(C(F)(F)F)cc4s3)C(=O)[C@]1(C)[C@H]1CC[C@@H]2O1` .
Fair

Give the measured Solubility in water of `C[C@@]12C(=O)N(c3nc4ccc(F)cc4s3)C(=O)[C@]1(C)[C@H]1CC[C@@H]2O1` .
Poor
